Reference source for all entries: patent US8664217B2

# TEST_TARGET: human Kv1.5 channels (Homo sapiens, UniProt P22460)
# Construct: Full-length human Kv1.5 cDNA was cloned from a human heart cDNA library
# Sequence (P22460 whole entry): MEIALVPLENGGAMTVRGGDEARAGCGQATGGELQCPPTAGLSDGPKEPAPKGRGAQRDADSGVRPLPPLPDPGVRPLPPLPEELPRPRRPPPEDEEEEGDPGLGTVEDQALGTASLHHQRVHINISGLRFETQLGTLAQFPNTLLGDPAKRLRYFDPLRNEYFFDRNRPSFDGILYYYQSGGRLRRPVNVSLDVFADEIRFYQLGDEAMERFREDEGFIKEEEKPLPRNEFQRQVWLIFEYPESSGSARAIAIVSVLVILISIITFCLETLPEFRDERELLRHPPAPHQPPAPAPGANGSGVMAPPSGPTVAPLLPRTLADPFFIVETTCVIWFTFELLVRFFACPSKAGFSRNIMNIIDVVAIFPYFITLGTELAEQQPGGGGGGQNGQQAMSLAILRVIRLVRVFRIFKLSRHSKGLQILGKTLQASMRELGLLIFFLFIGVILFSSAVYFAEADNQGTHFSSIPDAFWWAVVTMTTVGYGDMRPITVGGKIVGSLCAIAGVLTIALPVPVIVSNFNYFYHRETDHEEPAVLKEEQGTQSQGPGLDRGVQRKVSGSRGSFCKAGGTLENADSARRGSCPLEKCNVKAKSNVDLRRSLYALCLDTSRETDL
# ASSAY_COMMENT: Measurement of human Kv1.5 channel current by whole-cell patch clamp method (human Kv1.5-expressing CHO-K1 cell line)
# CONDITION_NOTES: human Kv1.5-expressing CHO-K1 cells, step end current at +40 mV, test compound 0.1, 1, 10 μM
pIC50: −log10 of the molar value.
MEASURED_ATTRIBUTE: pIC50

// solved cases for pIC50 follow
SMILES_REPRESENTATION	TEST_TARGET	pIC50
CCN1C(=O)C(C)(C)C(=O)N(C)c2cc(OCCCN(CCc3cccnc3)Cc3ccccc3)ccc21	human Kv1.5 channels (Homo sapiens, UniProt P22460)	6.54
CCN1C(=O)C(C)(C)C(=O)N(C)c2cc(OCCCN(CCn3c(=O)ccc4ccccc43)Cc3ccncc3)ccc21	human Kv1.5 channels (Homo sapiens, UniProt P22460)	6.62
CCN1C(=O)C(C)(C)C(=O)N(C)c2cc(OCCCN(CCn3ccc4ccoc4c3=O)Cc3ccc(C#N)cc3)ccc21	human Kv1.5 channels (Homo sapiens, UniProt P22460)	6.80
CCN1C(=O)C(C)(C)C(=O)N(C)c2cc(OCCCN(CCn3ccc4occc4c3=O)Cc3cnccc3C)ccc21	human Kv1.5 channels (Homo sapiens, UniProt P22460)	6.34
CCN1C(=O)C(C)(C)C(=O)N(C)c2cc(OCCCN(CCn3ccc4ccoc4c3=O)Cc3cccs3)ccc21	human Kv1.5 channels (Homo sapiens, UniProt P22460)	6.74

I: CCN1C(=O)C(C)(C)C(=O)N(C)c2cc(OCCCN(CCn3ccc4occc4c3=O)Cc3cccnc3C)ccc21
II: CCN1C(=O)C(C)(C)C(=O)N(C)c2cc(OCCCN(CCc3cccnc3)Cc3ccccc3-c3cccnc3)ccc21
Pick one: I or II . Which one has the lower reported pIC50? Selection: enter the item's label.
I

---

# TEST_TARGET: human Kv1.5 channels (Homo sapiens)
# Construct: Full-length human Kv1.5 cDNA was cloned from a human heart cDNA library
# ASSAY_COMMENT: Measurement of human Kv1.5 channel current by whole-cell patch clamp method (human Kv1.5-expressing CHO-K1 cell line)
# CONDITION_NOTES: human Kv1.5-expressing CHO-K1 cells, step end current at +40 mV, test compound 0.1, 1, 10 μM
pIC50: −log10 of the molar value. Structures can show the parent of a compound that is named as a salt.
MEASURED_ATTRIBUTE: pIC50

Example entries begin here.
MOLECULE	ENDPOINT_VALUE
CCN1C(=O)C(C)(C)C(=O)N(C)c2cc(OCCCN(CCc3cccnc3)Cc3cccc(C#N)c3)ccc21	6.80
CCN1C(=O)C(C)(C)C(=O)N(C)c2cc(OCCCN(CCc3cccnc3)C(=O)c3ccccc3)ccc21 [Example 633, hydrochloride]	5.96
CCN1C(=O)C(C)(C)C(=O)N(C)c2cc(OCCCN(CCn3ccc4ccsc4c3=O)Cc3ccncc3)ccc21	6.42
CCN1C(=O)C(C)(C)C(=O)N(C)c2cc(OCCCN(CCn3ccc4occc4c3=O)Cc3ccc(C)nc3C)ccc21 [Example 629, dihydrochloride]	6.12
CCN1C(=O)C(C)(C)C(=O)N(C)c2cc(OCCCN(CCn3ccc4oc(C)cc4c3=O)Cc3cnccc3C)ccc21	6.48
CCN1C(=O)C(C)(C)C(=O)N(C)c2cc(OCCCN(CCn3ccc4ccoc4c3=O)Cc3ccc(C(F)(F)F)cc3)ccc21	6.72
CCN1C(=O)C(C)(C)C(=O)N(C)c2cc(OCCCN(CCn3ccc4sccc4c3=O)Cc3cccnc3)ccc21	6.38
CCCc1ncccc1CN(CCCOc1ccc2c(c1)N(C)C(=O)C(C)(C)C(=O)N2CC)CCn1ccc2oc(C)cc2c1=O [Example 611, dihydrochloride]	6.51

I: CCN1C(=O)C(C)(C)C(=O)N(C)c2cc(OCCCN(CCn3ccc4sccc4c3=O)Cc3cccnc3C)ccc21
II: CCN1C(=O)C(C)(C)C(=O)N(C)c2cc(OCCCN(CCn3ccc4ccoc4c3=O)Cc3ccncc3)ccc21 [Example 31, dihydrochloride]
Param metric = pIC50; output whichever of I , II has the minimum value. Answer = label.
II
(II: 5.89, I: 6.30)
